Assayed Target: dengue 2 protease (Dengue virus type 2, UniProt P14340)
Construct: The active site of the dengue protease is in the N-terminal part of NS3
Sequence (P14340 1476-1653): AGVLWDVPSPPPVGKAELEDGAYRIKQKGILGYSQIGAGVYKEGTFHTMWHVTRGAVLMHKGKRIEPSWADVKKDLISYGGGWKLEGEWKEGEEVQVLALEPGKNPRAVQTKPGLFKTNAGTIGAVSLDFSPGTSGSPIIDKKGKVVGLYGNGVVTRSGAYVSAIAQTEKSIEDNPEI
Assay: Dengue 2 protease inhibition in presence of Triton X-100 (detergent test, Nature Protocol)
Format: biochemical, dengue 2 virus
Condition Label: 30 μM of inhibitor, 0.05% Triton X-100; initial activity in UAF/min
Residues, ends and D or L forms follow the SMILES beside them.
Parameter: Activity with 0.05% Triton
Please give only the number in your answer, with no unit.

Fill in: Activity with 0.05% Triton of CCCCCCCCCCCCCCCCNC(=O)[C@H](CCCCN)NC(=O)CNC(=O)CNC(=O)CNC(=O)[C@H](CCCCN)NC(=O)CCCCCCCCCCCCCCC [C16-KGGGK-C16, C15H31CO-KGGGK-NH—C16H33] (HELM PEPTIDE1{[CCCCCCCCCCCCCCCC(=O)[*:2]].K.G.G.G.K.[CCCCCCCCCCCCCCCCN[*:1]]}$$$$V2.0) is ___
154

Fill in: Activity with 0.05% Triton of CCCCCCCCCCCCCCCCNC(=O)[C@H](CCCCN)NC(=O)[C@H](CCCCN)NC(=O)CCCCCCCCCCCCCCC [C16-KK-C16, C15H31CO-KK-NH—C16H33] is ___
113

Fill in: Activity with 0.05% Triton of CCCCCCCCCCCCCCCCNC(=O)[C@H](CCCCN)NC(=O)[C@H](C)NC(=O)[C@H](C)NC(=O)[C@H](C)NC(=O)[C@H](CCCCN)NC(=O)CCCCCCCCCCCCCCC [C16-KAAAK-C16] (HELM PEPTIDE1{[CCCCCCCCCCCCCCCC(=O)[*:2]].K.A.A.A.K.[CCCCCCCCCCCCCCCCN[*:1]]}$$$$V2.0) is ___
91

----------
Assayed Target: dengue 2 protease (Dengue virus type 2, UniProt P14340)
Construct: The active site of the dengue protease is in the N-terminal part of NS3
Assay: Dengue 2 protease inhibition, hydrolysis of Z-RR-MCA
Type: biochemical, dengue 2 virus
Condition Label: 40 μM inhibitor, 36.5° C.
Residues, ends and D or L forms follow the SMILES beside them.
Record form. Attribute: activity at 40 µM. Fill in for each entry.
Numeric answer only, unit % assumed.

Fill in: activity at 40 µM of CCCCCCCCCCCCCCCCNC(=O)[C@H](CCCCN)NC(=O)[C@H](C)NC(=O)[C@H](CCCCN)NC(=O)CCCCCCCCCCCCCCC is ___
6

Fill in: activity at 40 µM of CCCCCCCCCCCCCCCCNC(=O)[C@H](CCCCN)NC(=O)[C@H](C)NC(=O)[C@H](C)NC(=O)[C@H](C)NC(=O)[C@H](C)NC(=O)[C@H](CCCCN)NC(=O)CCCCCCCCCCCCCCC [C16-KAAAAK-C16] (HELM PEPTIDE1{[CCCCCCCCCCCCCCCC(=O)[*:2]].K.A.A.A.A.K.[CCCCCCCCCCCCCCCCN[*:1]]}$$$$V2.0) is ___
45

Fill in: activity at 40 µM of CCCCCCCCCCCCCCCCNC(=O)[C@H](CCCCN)NC(=O)CNC(=O)[C@H](CCCCN)NC(=O)CCCCCCCCCCCCCCC [C16-KGK-C16, C15H31CO-KGK-NH—C16H33] is ___
2

Fill in: activity at 40 µM of CCCCCCCCCCCCCCCCNC(=O)[C@H](CCCCN)NC(=O)[C@H](C)NC(=O)[C@H](C)NC(=O)[C@H](C)NC(=O)[C@H](CCCCN)NC(=O)CCCCCCCCCCCCCCC [C16-KAAAK-C16] (HELM PEPTIDE1{[CCCCCCCCCCCCCCCC(=O)[*:2]].K.A.A.A.K.[CCCCCCCCCCCCCCCCN[*:1]]}$$$$V2.0) is ___
25

Fill in: activity at 40 µM of CCCCCCCCCCCCCCCCNC(=O)[C@H](CCCCN)NC(=O)CNC(=O)CNC(=O)[C@H](CCCCN)NC(=O)CCCCCCCCCCCCCCC [C16-KGGK-C16, C15H31CO-KGGK-NH—C16H33] (HELM PEPTIDE1{[CCCCCCCCCCCCCCCC(=O)[*:2]].K.G.G.K.[CCCCCCCCCCCCCCCCN[*:1]]}$$$$V2.0) is ___
64
